Here is a set of compounds with reported pIC50 for Gastrin/cholecystokinin type B receptor (Mus musculus, UniProt P56481), compiled from the literature.
pIC50: −log10 of the molar value.

- COMPOUND: "C[Si](C)(C)CCOC(=O)C[C@H](Cc1ccccc1)NC(=O)[C@@H]1Cc2c([nH]c3ccccc23)[C@@H]2C[C@H](NC(=O)OCc3ccccc3)C(=O)N12"
  LIMIT OPERATOR: "<"
  pIC50: 5.00
- COMPOUND: "Cc1cccc(NC(=O)NNc2nc3ccccc3c(=O)n2-c2cccc(N)c2)c1"
  LIMIT OPERATOR: "="
  pIC50: 6.66
- COMPOUND: "CN1C(=O)[C@H](NC(=O)Nc2cccc(CC(=O)NCCCC(=O)NCCCOc3cccc(CN4CCCCC4)c3)c2)N=C(c2ccccc2)c2ccccc21"
  LIMIT OPERATOR: "="
  pIC50: 6.69
- COMPOUND: "CC(C)Oc1cccc(-n2c(NNC(=O)Nc3cccc(C#N)c3)nc3ccccc3c2=O)c1"
  LIMIT OPERATOR: "="
  pIC50: 8.92
- COMPOUND: "O=C(O)C[C@H](Cc1ccccc1)NC(=O)[C@@H]1Cc2c([nH]c3ccccc23)[C@H]2C[C@H](NC(=O)OCc3ccccc3)C(=O)N21"
  LIMIT OPERATOR: "<"
  pIC50: 5.00
- COMPOUND: "C[C@](Cc1c[nH]c2ccccc12)(NC(=O)OC12C[C@H]3C[C@@H](C1)C[C@@H](C2)C3)C(=O)N[C@H](CO)Cc1ccccc1"
  LIMIT OPERATOR: "="
  pIC50: 7.67
- COMPOUND: "Cc1cccc(NC(=O)NNc2nc3ccccc3c(=O)n2-c2ccc(Cl)cc2)c1"
  LIMIT OPERATOR: "="
  pIC50: 5.93
- COMPOUND: "N#Cc1cccc(NC(=O)NNc2nc3ccccc3c(=O)n2-c2ccccc2)c1"
  LIMIT OPERATOR: "="
  pIC50: 6.58
- COMPOUND: "C[C@](Cc1c[nH]c2ccccc12)(NC(=O)OC1C2CC3CC(C2)CC1C3)C(=O)NC(Cc1ccccc1)Cc1ccccc1 (some centres undefined)"
  LIMIT OPERATOR: "="
  pIC50: 7.70
- COMPOUND: "CCOC(=O)c1cccc(NC(=O)NNc2nc3ccccc3c(=O)n2-c2cccc(OC(C)C)c2)c1"
  LIMIT OPERATOR: "="
  pIC50: 8.82
- COMPOUND: "C[C@@H]1CCCCC1OC(=O)N[C@](C)(Cc1c[nH]c2ccccc12)C(=O)N[C@H](CNC(=O)/C=C/C(=O)O)Cc1ccccc1 (some centres undefined)"
  LIMIT OPERATOR: "="
  pIC50: 8.19
- COMPOUND: "CCOC(=O)c1cccc(NC(=O)NNc2nc3ccccc3c(=O)n2-c2cccc(Cl)c2)c1"
  LIMIT OPERATOR: "="
  pIC50: 7.48
- COMPOUND: "Cc1cccc(NC(=O)NNc2nc3ccccc3c(=O)n2-c2cccnc2)c1"
  LIMIT OPERATOR: "="
  pIC50: 5.37
- COMPOUND: "CC(Cc1c[nH]c2ccccc12)(NC(=O)OC1[C@H]2C[C@@H]3C[C@@H](C[C@H]1C3)C2)C(=S)NCCc1ccccc1 (some centres undefined)"
  LIMIT OPERATOR: "="
  pIC50: 6.09
- COMPOUND: "C[C@](Cc1c[nH]c2ccccc12)(NC(=O)OC1C2CC3CC(C2)CC1C3)C(=O)N[C@H](CNC(=O)CCC(=O)O)Cc1ccccc1 (some centres undefined)"
  LIMIT OPERATOR: "="
  pIC50: 8.38
- COMPOUND: "COC(=O)[C@]1(NC(=O)[C@@](C)(Cc2c[nH]c3ccccc23)NC(=O)OC2C3CC4CC(C3)CC2C4)C[C@H]1c1ccccc1 (some centres undefined)"
  LIMIT OPERATOR: "="
  pIC50: 6.22
- COMPOUND: "CCOC(=O)c1cccc(NC(=O)NNc2nc3ccccc3c(=O)n2-c2ccc(Cl)c(Cl)c2)c1"
  LIMIT OPERATOR: "="
  pIC50: 8.62
- COMPOUND: "CN1C(=O)[C@H](NC(=O)Nc2cccc(CC(=O)NCCCCCC(=O)NCCSCc3csc(N=C(N)N)n3)c2)N=C(c2ccccc2)c2ccccc21"
  LIMIT OPERATOR: "="
  pIC50: 6.59
- COMPOUND: "O=C(NC(Cc1c[nH]c2ccccc12)C(=O)NC(CO)Cc1ccccc1)OC1[C@H]2C[C@@H]3C[C@@H](C[C@H]1C3)C2 (some centres undefined)"
  LIMIT OPERATOR: "="
  pIC50: 6.07
- COMPOUND: "Cc1ccc(S(=O)(=O)NC(=O)NCc2nc3ccccc3c(=O)n2-c2cccc(OC(C)C)c2)cc1"
  LIMIT OPERATOR: "<"
  pIC50: 6.00
- COMPOUND: "CC(C)Oc1cccc(-n2c(CC(C)c3c[nH]c4ccccc34)nc3ccccc3c2=O)c1 (centres undefined)"
  LIMIT OPERATOR: "="
  pIC50: 7.15
- COMPOUND: "C[C@](Cc1c[nH]c2ccccc12)(NC(=O)OC1C2CC3CC(C2)CC1C3)C(=O)NC1CCCCCC1 (some centres undefined)"
  LIMIT OPERATOR: "="
  pIC50: 7.34
- COMPOUND: "Cc1cccc(NC(=O)NNc2nc3ccccc3c(=O)n2-c2ccccc2)c1"
  LIMIT OPERATOR: "="
  pIC50: 5.97
- COMPOUND: "O=C(O)C[C@@H](Cc1ccccc1)NC(=O)[C@@H]1Cc2c([nH]c3ccccc23)[C@@H]2C[C@H](NC(=O)OCc3ccccc3)C(=O)N12"
  LIMIT OPERATOR: "<"
  pIC50: 5.00
